# Tested System: L-lactate dehydrogenase (Plasmodium falciparum (isolate CDC / Honduras))
# Experimental Details: PfLDH activity inhibition – cell lysate, 3D7 strain, counter-screen for P. falciparum growth inhibition project (AID 2304);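 further: 0% = vehicle and 100% = reference inhibitor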
# Condition Parameters: P. falciparum 3D7 crude extract, LDH APAD/NBT absorbance; at 2 µM; stronger effect = higher value
Measured Endpoint: inhibition (%)

Compound | Numeric Value
Cc1[nH]c(C)c(-c2ccc(Br)cc2)c(=O)c1Cl | -2
Fc1cccc(C=NNc2ccnc3cc(Cl)ccc23)c1 | -7
Nc1nc(N)c2c(ccc3nn(Cc4cccnc4)cc32)n1 | 0
Brc1ccsc1-c1nc(NCCC(c2ccccc2)c2ccccc2)no1 | -5
CN(C)CCOc1cc(NC(=O)Nc2ccc3c(c2)CCCC3=O)ccc1I | -5
CCc1ccc(OCCCON2C(N)=NC(N)=NC2(C)C)cc1 | -8
Cc1ccc(C2(C)CC(C)(C)N(C(=O)COc3ccc4ccccc4c3)c3ccccc32)cc1 (stereo unspecified) | -2
CC(C)Sc1nncc(-c2cnnc(SC(C)C)n2)n1 | 2
CNC(=O)c1cc(Nc2nnc(-c3ccc(C)c(S(=O)(=O)NC4CCCCC4)c3)c3ccccc23)ccc1OC | 5
Cc1ccccc1C1CCN(C2CCC(NC(=O)/C=C/c3ccc(C#N)cc3)CC2)CC1 (stereo unspecified) | 0
CC(C)NCc1cccc(-c2ccc(NS(=O)(=O)c3cccc4cccnc34)cc2)c1 | 5

---

# Tested System: Calcium-dependent protein kinase 4 (Plasmodium falciparum (isolate 3D7))
# Experimental Details: PfCDPK4 kinase inhibitors, biochemical, TCAMS library (AID 1159588)
# Condition Parameters: recombinant PfCDPK4, Kinase-Glo ATP depletion luminescence
Potency and affinity values are given separately. Calls of active or inactive are those of the source. No cut-off is given here; in the data, nearly all actives have IC50 up to about 0.91 µM.
Measured Endpoint: outcome

Chemical String | Result
Cc1ccc(NC(=O)c2cc(Br)cc(N3CCC(N(C)C)CC3)c2)cc1F | inactive
Cc1ccc(NC(=O)Nc2ccc(Cl)cc2)cc1-c1cccc(C(=O)Nc2ccc(F)cc2)c1 | inactive
COc1ccc(CN(C)C(=O)CCNS(=O)(=O)c2ccc3c(c2)OCCCO3)cc1F | inactive
CS(=O)(=O)Nc1ccc(OCCCCCCOc2ccc(NS(C)(=O)=O)cc2)cc1 | inactive
CC(C)(C)c1cc(C(=O)Nc2cccnc2)cc(C(=O)Nc2cccnc2)c1 | inactive

---

# Experimental Details: antimalarial activity against Dd2 strain (AID 2302);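 further: 0% = DMSO untreated growth and 100% = chloroquine plus artemisinin killed control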
# Condition Parameters: P. falciparum Dd2 in RBCs, LDH growth readout, 72 h; at 2 µM
Activity calls are given as the source filed them.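 The calls were made as follows: active = growth inhibition above 50% at the single 2 µM test dose, taken to imply half-maximal potency below 2 µM; inactive = the rest.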
Possible outcomes: True = active, False = inactive

Compound | Label Class
COc1ccc(CNC(=O)c2cnc3cc(-c4c(C)noc4C)ccc3c2Nc2ccccc2C(C)(C)C)cc1 | True
CC(Sc1nc2sccc2c(=O)n1C)C(=O)Nc1ccc2c(c1)OCO2 (centres undefined) | True
COc1cc2nc(N3CCC(CNC(=O)c4ccc(-c5ccc(C(=O)N(C)C)cc5OCCN(C)C)cc4)CC3)nc(N)c2cc1OC | False
COC(=O)[C@@H](NC(=O)[C@H](Cc1ccc(OC)c(OC)c1)Nc1ccc(C#N)c2ccccc12)c1ccc(O)cc1 | True

---

# Experimental Details: antimalarial activity against Dd2 strain (AID 2302);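 further: 0% = DMSO untreated growth and 100% = chloroquine plus artemisinin killed control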
# Condition Parameters: P. falciparum Dd2 in RBCs, LDH growth readout, 72 h; at 2 µM; stronger effect = higher value
Active and inactive are the calls of the source.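 Rule for the calls: active = growth inhibition above 50% at the single 2 µM test dose, taken to imply half-maximal potency below 2 µM; inactive = the rest.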
growth inhibition reference

Molecule | growth inhibition
Cc1cccc(CN2CCCN(Cc3ccc(C(=O)Nc4ccc(C)c(F)c4)cc3)CC2)c1 | 3% (inactive)
O=C(Nc1ccc(C(F)(F)F)cc1)c1cccc(S(=O)(=O)NC2CCN(CC3CCCCC3)C2)c1 (stereo not given) | 10% (inactive)
CCOc1ccc2c(NN=Cc3c4ccccc4cc4ccccc34)cc(C)nc2c1 | 94% (active)
NC1CCN(Cc2cccc(-c3ccc(-c4nc5ccccc5[nH]4)s3)c2)C1 (stereo not given) | 62% (active)
O=C(/C=C/c1ccc(Cl)c(Cl)c1)N1CCC(CN2CCC(c3nc4ccccc4n3CCCO)CC2)CC1 | -4% (inactive)
O=C(Nc1ccc(Oc2cccnc2)cc1)C1CCN(Cc2cc(Cl)ccc2O)CC1 | 1% (inactive)
O=C(CSc1nccn1C1CCCCC1)Nc1cc(C(F)(F)F)ccc1Cl | 95% (active)
Cc1nc(N)nc(N)c1CCCOc1ccccc1Br | 5% (inactive)
COc1ccc2ncc(F)c(CCN3CC[C@@H](CNCc4ccc5c(c4C)OCCO5)C3)c2n1 | 11% (inactive)
O=S(=O)(c1ccc(OC(F)(F)F)cc1)C1C[C@H]2CC[C@@H](C1)N2S(=O)(=O)c1ccc(Cl)c(C(F)(F)F)c1 (stereo not given in full) | 95% (active)
CN(CCCN(C)c1cc(NC(=O)c2ccc(F)cc2)ccn1)Cc1cccc(F)c1 | 60% (active)
Cc1ccc(O)cc1Nc1ccnc2ccc(-c3cccc(CNCCN(C)C)c3)cc12 | 46% (inactive)
CCOCCCNc1nc2cc(OC)c(OC)cc2c2nc(-c3ccccc3)nn12 | 98% (active)
CCc1cn2c3c(cc(C(=O)N[C@@H](Cc4ccccc4)[C@H](O)CN[C@@H](C)CC)cc13)N(C)S(=O)(=O)CC2 | 98% (active)
COc1cc(NC(=O)c2cccs2)c(C(=O)NCc2ccc(C)cc2)cc1OC | 88% (active)
O=C(Cn1cnc2c(nnn2Cc2ccccc2F)c1=O)Nc1ccc2c(c1)OCCO2 | 1% (inactive)
COc1cccc(CC(=O)NC2CCN(c3ccnc4cc(Cl)ccc34)C2)c1 (stereo not given) | 85% (active)
COc1ccc2nccc([C@@H](O)CN3CCC(NCc4nc5cc(F)c(F)cc5[nH]4)CC3)c2c1 | 36% (inactive)
COc1ccccc1-c1cccc(Nc2c(Nc3ccc(Cl)cc3)c(=O)c2=O)c1 | 47% (inactive)
Cc1ccc([C@@H]2CC(=O)CC(c3ccccn3)[C@H]2[N+](=O)[O-])cc1 (stereo not given in full) | 2% (inactive)

---

# Experimental Details: inhibition of 3D7 malaria parasite growth – strain 3D7 (AID 2306);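 further: 0% = DMSO wells and 100% = chloroquine plus artemisinin control wells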
# Condition Parameters: P. falciparum 3D7 erythrocytic growth, LDH absorbance, 72 h; at 2 µM; stronger effect = higher value
Measured Endpoint: growth inhibition (%)

Molecule | Measured Endpoint | Numeric Value
CSCCC(C(=O)O)N1C(=O)c2ccccc2C1=O (stereo not given) | growth inhibition | 91
O=C(/C=C/c1ccc(Cl)c(Cl)c1)NCCCCCN1CCC(NC(=O)c2cccc(Cl)c2)CC1 | growth inhibition | 98
COc1ccc(CNCc2cccc(-c3ccc(-c4nc5c(C)cccc5[nH]4)s3)c2)cc1 | growth inhibition | 103
Cc1c(C(=O)NCc2ccncc2)sc2nc(-c3cccc([N+](=O)[O-])c3)cn12 | growth inhibition | 97
Cc1c2c(nn1-c1ccccc1)C(c1ccccc1)N(c1ccccc1)C2=O (stereo not given) | growth inhibition | 92
Cc1nc2c(-n3cc(Cn4ccnc4)c4ccccc43)ncnc2n1-c1ccc(Cl)cc1Cl | growth inhibition | 89
Cc1cc(F)ccc1C1CCN(CCCCNC(=O)c2ccc(NC(=O)c3ccc(Cl)cc3)cc2)CC1 | growth inhibition | 101
COc1ccc(Cl)cc1NC(=O)Nc1ccnc2ccccc12 | growth inhibition | 101
FC(F)(F)Oc1cccc(CNc2noc(-c3sccc3Br)n2)c1 | growth inhibition | 100
COc1ccc(NC(=O)CSc2nc(-c3ccccc3Cl)ns2)cc1OC | growth inhibition | 97

---

# Tested System: L-lactate dehydrogenase (Plasmodium falciparum (isolate CDC / Honduras))
# Experimental Details: PfLDH activity inhibition – cell lysate, 3D7 strain, counter-screen for P. falciparum growth inhibition project (AID 2304);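 further: 0% = vehicle and 100% = reference inhibitor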
# Condition Parameters: P. falciparum 3D7 crude extract, LDH APAD/NBT absorbance; at 2 µM; stronger effect = higher value

Molecule | inhibition, %
CCOC(=O)C(=O)N1c2ccc(OCC)cc2-c2c(ssc2=S)C1(C)C | -4
CC(CCc1ccc(OCc2ccccc2)cc1)NCC(O)c1ccccc1 (stereo not given) | -1
CCOC(=O)c1cc(Cl)ccc1OCCCON1C(N)=NC(N)=NC1(C)C | 3
COc1ccc(CCCc2nc(N)nc(N)c2-c2ccc(Cl)cc2)cc1 | 2
Nc1ccc(-c2nc3ccc(Cc4ccc5nc(-c6ccc(N)cc6)[nH]c5c4)cc3[nH]2)cc1 | 2
O=C(NC1CCCCN(Cc2ccc3c(c2)OCCO3)C1)c1cc(-c2ccccc2F)cs1 (stereo not given) | 1
COc1ccc2nccc([C@@H](O)CN3CCC(NCCNc4ccccn4)CC3)c2c1 | -4
Cc1c(CNCCCNc2cc(=O)c3ccccc3[nH]2)sc(C(F)=C(F)F)c1Br | -2
COc1ccc(S(=O)(=O)NC2CCN(c3cc(C)nc(Nc4cccc(C#N)c4)n3)CC2)cc1 | -4
Nc1nccc2ccc(-c3ccc(NC(=O)Nc4cc(C(F)(F)F)ccc4F)cc3)cc12 | -3
COc1cccc(CNc2noc(-c3c(-c4ccccc4)noc3C)n2)c1OC | -2
COc1ccc2nccc([C@@H](O)CN3CCC(NCc4nc5c([N+](=O)[O-])cccc5[nH]4)CC3)c2c1 | -2
O=C(C=Cc1ccc(Cl)c(Cl)c1)NCCCCCN1CCC(CCNC(=O)/C=C/c2ccccc2)CC1 | -7
CCN(CC)CCN1C(=O)c2oc3ccc(F)cc3c(=O)c2C1c1cccc(Cl)c1 (stereo not given) | -2
CC(=O)c1ccccc1OCCSc1nnc(Cc2cccs2)n1C1CCCCC1 | -5
CC1(C)N=C(N)N=C(N)N1OCCCNC(=O)c1ccc([N+](=O)[O-])cc1 | 2
NC(N)=Nc1nc(-c2cccc(NC(=O)NCc3cccc4ccccc34)c2)cs1 | 5
O=C(Cc1cccnc1)Nc1cccc(-c2cccc(-c3nc4ccc(C(F)(F)F)cc4[nH]3)c2)c1 | -7
CN(Cc1cccc(O)c1)C1CCN(c2cc(NC(=O)c3ccc(F)cc3)ccn2)CC1 | -2
Cc1ccc(CNC(=O)[C@H](CCCN)Nc2nc(Nc3ccccc3)ncc2C)cc1 | -2
COc1cc(CNCCCNc2nc3ncccc3[nH]2)c2[nH]cc(Br)c2c1 | 8
COc1ccc(-c2cccc(NC(=O)c3ccc(Cl)cc3)c2)cc1CN(C)CCN(C)C | 4
Nc1c2c(nc3ccc(NC(=O)CCCCCc4ccccc4)cc13)CCCC2 | 4
CCNc1cc(C(=O)N[C@@H](Cc2ccccc2)[C@H](O)CNCCC(C)(C)C)c(F)c(N2CCCCS2(=O)=O)c1 | 2
O=C(N[C@@H](Cc1ccccc1)[C@H](O)CNCCC(F)(F)F)c1cccc(CCC2CC2)c1 | 5
CCn1cc(C(=O)O)c(=O)c2cc(F)c(N3CCN(S(=O)(=O)c4ccc(N)cc4)CC3)cc21 | 4
COc1ccc(CCN2CCC(CN(C)Cc3cnn(-c4ccccc4)c3)CC2)cc1 | -1
COc1ccc(CC(=O)NC(CCN2CCC3(CC2)CN(S(C)(=O)=O)c2ccccc23)c2ccc(Cl)c(Cl)c2)cc1OC (stereo not given) | 7
O=C(NCC1CCN(Cc2cccc(C(F)(F)F)c2)C1)c1cc(-c2cccc(C(F)(F)F)c2)cs1 (stereo not given) | -2
Cc1cnc(C(=O)Nc2cccc(-c3ccc(-c4nc5ccc(F)cc5[nH]4)cc3)c2)cn1 | -2
Cc1cc(NC(=O)c2ccc(-c3ccccc3)cc2)no1 | 0
O=c1cc(NCCC(CNCc2ccoc2)NCc2cc(Br)cc(Br)c2)[nH]c2ccccc12 (stereo not given) | -1
c1ccn2c(-c3ncnc(NCc4ccc5c(c4)CCO5)n3)cnc2c1 | 0
CC[C@H](NC(=O)c1c(N)c(-c2sccc2Cl)nc2ccccc12)c1ccccc1 | -4
Oc1c(Cl)cc(-c2ccccc2)cc1CNC1CCCCC1 | -5
Cn1cc(Br)c(-c2cccc(Nc3ccnc4cc(-c5nccs5)ccc34)c2)n1 | -1
CC1(C)N=C(N)N=C(N)N1c1ccc(Br)cc1 | 0
CN1CCN(c2ccnc3ccc(NC(=O)Cc4ccc(OCc5ccccc5)cc4)cc23)CC1 | -1
OCCNc1nc(Nc2cccc(O)c2)nc2ccccc12 | 3
O=S(=O)(Nc1cc2c(cc1OCCCN1CCCCC1)CCNCC2)c1ccc(-c2ccc(Cl)cc2)cc1 | 2
